- test protocol: Binding affinity by displacement of tritiated substance P from its binding sites on membrane preparations from mouse brain
- Assay type: tissue-based
metric: Ki (nM)
Report as a plain number; the unit nM is understood.

What measured Ki goes with "CSCC[C@@H](NC(=O)[C@H](CC(C)C)NC(=O)CNC(=O)[C@H](Cc1ccccc1)NC(=O)[C@H](Cc1ccccc1)NC(=O)[C@H](CCC(N)=O)NC(=O)[C@H](CCC(N)=O)NC(=O)[C@@H]1CCCN1)C(N)=O" ?
750

###

- test protocol: Solubility was evaluated
- Format: physicochemical
Reported solubility values for the following compounds.

Illustrative cases are given below, each with its answer.
[
  {
    "smiles input": "CN(Cc1ccccc1)C(=O)[C@H](Cc1ccccc1)NC(=O)[C@@H](Cc1cn(C(=O)CCCCCCN)c2ccccc12)NC(=O)C[C@@H]1NC(=O)[C@@H]2C3CCC(CC3)N2C1=O",
    "measurement": "43000 µg/mL"
  },
  {
    "smiles input": "CN(Cc1ccccc1)C(=O)[C@H](Cc1ccccc1)NC(=O)[C@@H](Cc1cn(C)c2ccccc12)NC(=O)C[C@@H]1NC(=O)[C@@H]2C3CCC(CC3)N2C1=O",
    "measurement": "< 10 µg/mL"
  },
  {
    "smiles input": "CCCCCCCC(=O)n1cc(C[C@@H](NC(=O)C[C@@H]2NC(=O)[C@@H]3C4CCC(CC4)N3C2=O)C(=O)N[C@@H](Cc2ccccc2)C(=O)N(C)Cc2ccccc2)c2ccccc21",
    "measurement": "< 10 µg/mL"
  },
  {
    "smiles input": "CN(Cc1ccccc1)C(=O)[C@H](Cc1ccccc1)NC(=O)[C@@H](Cc1cn(C=O)c2ccccc12)NC(=O)C[C@@H]1NC(=O)[C@@H]2C3CCC(CC3)N2C1=O",
    "measurement": "< 10 µg/mL"
  },
  {
    "smiles input": "CC(=O)n1cc(C[C@@H](NC(=O)C[C@@H]2NC(=O)[C@@H]3C4CCC(CC4)N3C2=O)C(=O)N[C@@H](Cc2ccccc2)C(=O)N(C)Cc2ccccc2)c2ccccc21",
    "measurement": "< 10 µg/mL"
  }
]

What measured solubility goes with "COC(=O)n1cc(C[C@@H](NC(=O)C[C@@H]2NC(=O)[C@@H]3C4CCC(CC4)N3C2=O)C(=O)N[C@@H](Cc2ccccc2)C(=O)N(C)Cc2ccccc2)c2ccccc21" ?
< 10 µg/mL

What measured solubility goes with "CN(Cc1ccccc1)C(=O)[C@H](Cc1ccccc1)NC(=O)[C@@H](Cc1cn(C(=O)OC(C)(C)C)c2ccccc12)NC(=O)C[C@@H]1NC(=O)[C@@H]2C3CCC(CC3)N2C1=O" ?
< 10 µg/mL

What measured solubility goes with "CN(Cc1ccccc1)C(=O)[C@H](Cc1ccccc1)NC(=O)[C@@H](Cc1cn(C(=O)OCc2ccccc2)c2ccccc12)NC(=O)C[C@@H]1NC(=O)[C@@H]2C3CCC(CC3)N2C1=O" ?
< 10 µg/mL

What measured solubility goes with "CN(Cc1ccccc1)C(=O)[C@H](Cc1ccccc1)NC(=O)[C@@H](Cc1cn(C(=O)OCCCCCCN)c2ccccc12)NC(=O)C[C@@H]1NC(=O)[C@@H]2C3CCC(CC3)N2C1=O" ?
40000 µg/mL

What measured solubility goes with "CN(Cc1ccccc1)C(=O)[C@H](Cc1ccccc1)NC(=O)[C@@H](Cc1c[nH]c2ccccc12)NC(=O)C[C@@H]1NC(=O)[C@@H]2C3CCC(CC3)N2C1=O" ?
< 10 µg/mL

What measured solubility goes with "CN(Cc1ccccc1)C(=O)[C@H](Cc1ccccc1)NC(=O)[C@@H](Cc1cn(C(=O)CCC(=O)O)c2ccccc12)NC(=O)C[C@@H]1NC(=O)[C@@H]2C3CCC(CC3)N2C1=O" ?
45000 µg/mL

###

- target under test: Substance-K receptor (Oryctolagus cuniculus, UniProt P79218)
- Sequence (P79218 whole entry): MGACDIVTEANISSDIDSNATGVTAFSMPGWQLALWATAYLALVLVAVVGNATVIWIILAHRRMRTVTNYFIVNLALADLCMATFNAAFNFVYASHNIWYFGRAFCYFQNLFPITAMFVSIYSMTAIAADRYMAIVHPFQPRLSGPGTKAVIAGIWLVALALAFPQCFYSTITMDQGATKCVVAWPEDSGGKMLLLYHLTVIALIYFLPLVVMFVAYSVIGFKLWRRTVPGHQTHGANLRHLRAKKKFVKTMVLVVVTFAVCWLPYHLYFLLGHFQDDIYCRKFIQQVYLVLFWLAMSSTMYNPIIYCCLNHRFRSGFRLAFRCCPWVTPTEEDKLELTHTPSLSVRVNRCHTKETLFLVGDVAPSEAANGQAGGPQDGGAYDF
- test protocol: Tested for antagonist activity against NK-2 receptor in rabbit pulmonary artery by using Neurokinin A as agonist
- Type: functional
- run conditions: read-out: pA2 (converted)
Reported Kb values for the following compounds.
Report as a plain number; the unit µM is understood.

[
  {
    "smiles input": "CC(=O)n1cc(C[C@@H](NC(=O)C[C@@H]2NC(=O)[C@@H]3C4CCC(CC4)N3C2=O)C(=O)N[C@@H](Cc2ccccc2)C(=O)N(C)Cc2ccccc2)c2ccccc21",
    "Kb, µM": 0.126
  },
  {
    "smiles input": "CCCCCCCC(=O)n1cc(C[C@@H](NC(=O)C[C@@H]2NC(=O)[C@@H]3C4CCC(CC4)N3C2=O)C(=O)N[C@@H](Cc2ccccc2)C(=O)N(C)Cc2ccccc2)c2ccccc21",
    "Kb, µM": 15.8
  },
  {
    "smiles input": "CN(Cc1ccccc1)C(=O)[C@H](Cc1ccccc1)NC(=O)[C@@H](Cc1cn(C(=O)CCCCCCN)c2ccccc12)NC(=O)C[C@@H]1NC(=O)[C@@H]2C3CCC(CC3)N2C1=O",
    "Kb, µM": 20
  }
]

What measured Kb goes with "COC(=O)n1cc(C[C@@H](NC(=O)C[C@@H]2NC(=O)[C@@H]3C4CCC(CC4)N3C2=O)C(=O)N[C@@H](Cc2ccccc2)C(=O)N(C)Cc2ccccc2)c2ccccc21" ?
15.8
